# System: VRE
# Protocol details: Broth microdilution MIC, Example 7 (NCL812 and analogues)
# Type: cell-based, Enterococcus spp.
# Condition info: VRE 1; 24 hours; duplicate lines per compound
Recorded MIC (μg/ml) at 24 hours, VRE 1 values for a group of molecules are listed next.
Readout name: MIC (μg/ml) at 24 hours, VRE 1 (µg/mL)

>>> value("Cl.N=C(NN=Cc1cccc(O)c1)NN=Cc1cccc(O)c1")
64
>>> value("CC(C)c1ccc(/C=N/NC(=N)N/N=C/c2ccc(C(C)C)cc2)cc1.Cl")
2
>>> value("CC(=NNC(=N)NN)c1ccc(C(F)(F)F)cc1.Cl")
16
>>> value("Cl.N=C(NN=CC1CCCCC1)NN=CC1CCCCC1")
64
>>> value("Cl.N=C(NN=Cc1ccc(O)c(O)c1O)NN=Cc1ccc(O)c(O)c1O")
64
>>> value("CN(C)c1ccc(C=NNC(=N)NN=Cc2ccc(N(C)C)cc2)cc1.Cl")
8
